# STUDY_SYSTEM: PcrV of P. aeruginosa strain PA103 (on TTSS-induced bacteria) (Pseudomonas aeruginosa strain PA103)
# ASSAY_NOTES: cell-based or functional assay
% inhibition in P3X63 cytotoxicity assay, extract 1/150 vs 70%: at or above is TRUE, below is FALSE.

# count of solved cases: 4
BINDER	QUALITATIVE_LABEL
3E10-40GS-5H01 (VHH) EVQLVESGGGLVQAGGSLRLSCTASGHTFSSYTMGWFRQAPGKEREFVAAMTRSGFNTHYSDSVKGRFTISRDNTSRDNTKITMALQMNSLKPEDTAVYYCTTGRGLTSYVANFWGQGTQVTVSSGGGGSGGGGSGGGGSGGGGSGGGGSGGGGSGGGGSGGGGSEVQLVESGGGLVQPGGSLRLSCAASGSTLDYYAIGWFRQAPGKEREGVSCTSNSGSTYYGGSVKGRFTASRDNAKNTVYLQMNSLRPEDTAVYYCVATIGCATLGGTLDVQRYYYRGQGTQVTVSS	TRUE
Nanobody 064 (13F07-40GS-7C10) (VHH) EVQLVESGGGLVQAGGSLRLSCAASGNTFSTNPMYWYRQAEGKQRELVASISSRGITNYADSVRGRFSISRDNTKDTVYLQMNSLKPEDTAVYYCRLASLSSGTVYWGKGTLVTVSSGGGGSGGGGSGGGGSGGGGSGGGGSGGGGSGGGGSGGGGSEVQLVESGGGLVQAGGSLRLSCTASGRTLSSYTMGWFRQAPGTEREFVAAMTRSGFNTYYADSVKGRFTISRDSTENTMALQMSSLKPEDTAVYYCTAGRGLTSYRADYWGQGTLVTVSS	TRUE
Nanobody 262 (7E09-40GS-7C10) (VHH) EVQLVESGGGLVQAGGSLRLSCAASGRTFSSYIMGWFRQAPGKAREFVADITWGQRPYYADSVKGRFTISRDNAKNTVYLEMNSLKPEDTAVYYCAADLGVVIREEHAYWGQGTLVTVSSGGGGSGGGGSGGGGSGGGGSGGGGSGGGGSGGGGSGGGGSEVQLVESGGGLVQAGGSLRLSCTASGRTLSSYTMGWFRQAPGTEREFVAAMTRSGFNTYYADSVKGRFTISRDSTENTMALQMSSLKPEDTAVYYCTAGRGLTSYRADYWGQGTLVTVSS	FALSE
1E11-40GS-5E02 (VHH) EVQLVESGGGLVQPGGSLRLSCAASGSTRSVNPMAWFRQAPGRQREWVATISRSGYATYADSVKGRFTISGDNAKSSVYLQMNSLKPEDTAVYYCVTGTYWGQGTLVTVSSGGGGSGGGGSGGGGSGGGGSGGGGSGGGGSGGGGSGGGGSEVQLVESGGGLVQPGGSLRLSCAASGITLDSIAICWFRQAPGKEREGVSCSRGSDGSTYYADSVKGRFTISRVNAKNTVYLQMNSLKPEDTAVYYCAAAPSIFYSGGYFPSGMDYWGKGTQVTVSS	FALSE

We now examine a further binder.
Reported % inhibition in P3X63 cytotoxicity assay, extract 1/150 reaches at least 70% for Nanobody 264 (1E11-40GS-2B02) (VHH) EVQLVESGGGLVQPGGSLRLSCAASGSTRSVNPMAWFRQAPGRQREWVATISRSGYATYADSVKGRFTISGDNAKSSVYLQMNSLKPEDTAVYYCVTGTYWGQGTLVTVSSGGGGSGGGGSGGGGSGGGGSGGGGSGGGGSGGGGSGGGGSEVQLVESGGGLVQPGDSLRLSCAASGRILSINNMVWYRQAPGKQRELVAHITSSGSTGYADSVKGRFTISRDNAKNTFYLQMTNLNPEDTAVYYCNCWVSSDSNAPLKNYWGQGTLVTVSS ?
FALSE
